Provide the recorded GI-50 for the entries that follow.
Tested on: SK-MEL-3
Protocol Details: Human cancer cell growth inhibition, melanoma SK-MEL-3
Assay type: cell-based

Worked cases, GI-50 given:
Compound	Value Reported
CC[C@H](C)[C@@H]([C@@H](CC(=O)N1CCC[C@H]1[C@H](OC)[C@@H](C)C(=O)NCCN(C)C)OC)N(C)C(=O)[C@@H](NC(=O)[C@H](C(C)C)N(C)C)C(C)C [Peptide 6c]	<0.01 µg/mL
CC[C@H](C)[C@@H]([C@@H](CC(=O)N1CCC[C@H]1[C@H](OC)[C@@H](C)C(=O)NCCN1CCOCC1)OC)N(C)C(=O)[C@@H](NC(=O)[C@H](C(C)C)N(C)C)C(C)C [Peptide 6b]	<0.0001 µg/mL
CC[C@H](C)[C@@H]([C@@H](CC(=O)N1CCC[C@H]1[C@H](OC)[C@@H](C)C(=O)NCCCN(C)C)OC)N(C)C(=O)[C@@H](NC(=O)[C@H](C(C)C)N(C)C)C(C)C [Peptide 6d]	<0.01 µg/mL

Now look at this entry.
Query the reported GI-50 for SK-MEL-3; item: CC[C@H](C)[C@@H]([C@@H](CC(=O)N1CCC[C@H]1[C@H](OC)[C@@H](C)C(=O)NCCc1ccccn1)OC)N(C)C(=O)[C@@H](NC(=O)[C@H](C(C)C)N(C)C)C(C)C [Peptide 6a]
0.000065 µg/mL

###

Test system: SF-295
Protocol Details: Human cancer cell growth inhibition, CNS SF-295
Type: cell-based
Provide the recorded TGI for the entries that follow.

Could I get TGI for every one of these entries?
1. CC[C@H](C)[C@@H]([C@@H](CC(=O)N1CCC[C@H]1[C@H](OC)[C@@H](C)C(=O)NCCN1CCOCC1)OC)N(C)C(=O)[C@@H](NC(=O)[C@H](C(C)C)N(C)C)C(C)C [Peptide 6b]
2. CC[C@H](C)[C@@H]([C@@H](CC(=O)N1CCC[C@H]1[C@H](OC)[C@@H](C)C(=O)NCCN(C)C)OC)N(C)C(=O)[C@@H](NC(=O)[C@H](C(C)C)N(C)C)C(C)C [Peptide 6c]
3. CC[C@H](C)[C@@H]([C@@H](CC(=O)N1CCC[C@H]1[C@H](OC)[C@@H](C)C(=O)NCCc1ccccn1)OC)N(C)C(=O)[C@@H](NC(=O)[C@H](C(C)C)N(C)C)C(C)C [Peptide 6a]
4. CC[C@H](C)[C@@H]([C@@H](CC(=O)N1CCC[C@H]1[C@H](OC)[C@@H](C)C(=O)NCCCN(C)C)OC)N(C)C(=O)[C@@H](NC(=O)[C@H](C(C)C)N(C)C)C(C)C [Peptide 6d]

1. <0.1 ng/mL
2. <10 ng/mL
3. <10 ng/mL
4. <10 ng/mL

###

Provide the recorded TGI for the entries that follow.
Tested on: SK-MEL-3
Protocol Details: Human cancer cell growth inhibition, melanoma SK-MEL-3
Assay type: cell-based

Compound	Value Reported
CC[C@H](C)[C@@H]([C@@H](CC(=O)N1CCC[C@H]1[C@H](OC)[C@@H](C)C(=O)NCCc1ccccn1)OC)N(C)C(=O)[C@@H](NC(=O)[C@H](C(C)C)N(C)C)C(C)C [Peptide 6a]	0.77 ng/mL

Could I get TGI for every one of these entries?
1. CC[C@H](C)[C@@H]([C@@H](CC(=O)N1CCC[C@H]1[C@H](OC)[C@@H](C)C(=O)NCCN1CCOCC1)OC)N(C)C(=O)[C@@H](NC(=O)[C@H](C(C)C)N(C)C)C(C)C [Peptide 6b]
2. CC[C@H](C)[C@@H]([C@@H](CC(=O)N1CCC[C@H]1[C@H](OC)[C@@H](C)C(=O)NCCN(C)C)OC)N(C)C(=O)[C@@H](NC(=O)[C@H](C(C)C)N(C)C)C(C)C [Peptide 6c]
3. CC[C@H](C)[C@@H]([C@@H](CC(=O)N1CCC[C@H]1[C@H](OC)[C@@H](C)C(=O)NCCCN(C)C)OC)N(C)C(=O)[C@@H](NC(=O)[C@H](C(C)C)N(C)C)C(C)C [Peptide 6d]

1. <0.1 ng/mL
2. <10 ng/mL
3. <10 ng/mL

###

System: P-388
Protocol Details: Cancer cell growth inhibition, murine P388 lymphocytic leukemia cell line
Format: cell-based
Design: unit not given here
Details: Mouse leukemia cell P-388
Recorded Endpoint: Cancer cell growth inhibitory activity
Answers are plain numbers.

Compound	Cancer cell growth inhibitory activity
CC[C@H](C)[C@@H]([C@@H](CC(=O)N1CCC[C@H]1[C@H](OC)[C@@H](C)C(=O)NCCCN(C)C)OC)N(C)C(=O)[C@@H](NC(=O)[C@H](C(C)C)N(C)C)C(C)C [Peptide 6d]	0.881
CC[C@H](C)[C@@H]([C@@H](CC(=O)N1CCC[C@H]1[C@H](OC)[C@@H](C)C(=O)NCCN1CCOCC1)OC)N(C)C(=O)[C@@H](NC(=O)[C@H](C(C)C)N(C)C)C(C)C [Peptide 6b]	0.0736

Now look at this entry.
Please look up its Cancer cell growth inhibitory activity: CC[C@H](C)[C@@H]([C@@H](CC(=O)N1CCC[C@H]1[C@H](OC)[C@@H](C)C(=O)NCCc1ccccn1)OC)N(C)C(=O)[C@@H](NC(=O)[C@H](C(C)C)N(C)C)C(C)C [Peptide 6a]
0.000713

Ref: patent US6569834B1
